Settings: accelerated conditions; start to 6 months
Metric name: Content Change (%)
Output spec: scalar in %, unitless text.

Query block: Annotate the compound C=CC(=O)Nc1cc(Nc2nccc(-n3cc(CN(C)C)c(-c4ccccc4)n3)n2)c(OC)cc1N1CCOCC1.O=C(O)CC(O)(CC(=O)O)C(=O)O with its measured Content Change.
Result block: −1.3

Query block: Annotate the compound C=CC(=O)Nc1cc(Nc2nccc(-n3cc(CN(C)C)c(-c4ccccc4)n3)n2)c(OC)cc1N1CCOCC1.CCS(=O)(=O)O with its measured Content Change.
Result block: −5.1

###

Experiment: Stability test under stress conditions (PXRD, DSC, appearance, HPLC)
Conditions: stress conditions; start to 4 weeks
Task for the reader: assign each of the following molecules its reported Water content Change.

Query block: Annotate the molecule C=CC(=O)Nc1cc(Nc2nccc(-n3cc(CN(C)C)c(-c4ccccc4)n3)n2)c(OC)cc1N1CCOCC1.O=C(O)CC(O)(CC(=O)O)C(=O)O [C. Ex. 3] with its measured Water content Change.
Result block: +0.82%

Query block: Annotate the molecule C=CC(=O)Nc1cc(Nc2nccc(-n3cc(CN(C)C)c(-c4ccccc4)n3)n2)c(OC)cc1N1CCOCC1.CCS(=O)(=O)O [C. Ex. 4] with its measured Water content Change.
Result block: +2.03%

Query block: Annotate the molecule C=CC(=O)Nc1cc(Nc2nccc(-n3cc(CN(C)C)c(-c4ccccc4)n3)n2)c(OC)cc1N1CCOCC1.Cl [C. Ex. 2] with its measured Water content Change.
Result block: +0.58%

Query block: Annotate the molecule C=CC(=O)Nc1cc(Nc2nccc(-n3cc(CN(C)C)c(-c4ccccc4)n3)n2)c(OC)cc1N1CCOCC1 [Ex. 1] with its measured Water content Change.
Result block: +0.22%

###

Experiment: Pharmacokinetic comparison test in rats treated with esomeprazole
Assay type: in vivo, rats (SD rats)
Conditions: male, SD, rat, plasma, po, 30 mg/kg, Rats treated with esomeprazole (i.v. 5 mg/2 mL/kg for 3 days), oral 30 mg/5 ml/kg; read-out: Maximum plasma concentration (Cmax)
Metric name: Cmax (ng/mL)
Output spec: scalar in ng/mL, unitless text.

Query block: Annotate the molecule C=CC(=O)Nc1cc(Nc2nccc(-n3cc(CN(C)C)c(-c4ccccc4)n3)n2)c(OC)cc1N1CCOCC1 with its measured Cmax.
Result block: 428

###

Assay: Stability test under stress conditions (PXRD, DSC, appearance, HPLC)
Settings: stress conditions; start to 4 weeks
Metric name: Purity Change (%)
Output spec: scalar in %, unitless text.

Query block: Annotate the molecule C=CC(=O)Nc1cc(Nc2nccc(-n3cc(CN(C)C)c(-c4ccccc4)n3)n2)c(OC)cc1N1CCOCC1.CCS(=O)(=O)O [C. Ex. 4] with its measured Purity Change.
Result block: −0.6

Query block: Annotate the molecule C=CC(=O)Nc1cc(Nc2nccc(-n3cc(CN(C)C)c(-c4ccccc4)n3)n2)c(OC)cc1N1CCOCC1.O=C(O)CC(O)(CC(=O)O)C(=O)O [C. Ex. 3] with its measured Purity Change.
Result block: −0.5

###

Conditions: accelerated conditions; HPLC; 6 mos
Metric name: Purity (%)
Output spec: scalar in %, unitless text.

Query block: Annotate the compound C=CC(=O)Nc1cc(Nc2nccc(-n3cc(CN(C)C)c(-c4ccccc4)n3)n2)c(OC)cc1N1CCOCC1.CCS(=O)(=O)O [C. Ex. 4] with its measured Purity.
Result block: 98.4

Query block: Annotate the compound C=CC(=O)Nc1cc(Nc2nccc(-n3cc(CN(C)C)c(-c4ccccc4)n3)n2)c(OC)cc1N1CCOCC1.Cl [C. Ex. 2] with its measured Purity.
Result block: 98.8

Query block: Annotate the compound C=CC(=O)Nc1cc(Nc2nccc(-n3cc(CN(C)C)c(-c4ccccc4)n3)n2)c(OC)cc1N1CCOCC1 [Ex. 1] with its measured Purity.
Result block: 99.3

Query block: Annotate the compound C=CC(=O)Nc1cc(Nc2nccc(-n3cc(CN(C)C)c(-c4ccccc4)n3)n2)c(OC)cc1N1CCOCC1.O=C(O)CC(O)(CC(=O)O)C(=O)O [C. Ex. 3] with its measured Purity.
Result block: 97.7

###

Experiment: Stability test under stress conditions (PXRD, DSC, appearance, HPLC)
Conditions: stress conditions; Start
Metric name: DSC onset
Returns: string containing the number followed by the unit.

Query block: Annotate the molecule C=CC(=O)Nc1cc(Nc2nccc(-n3cc(CN(C)C)c(-c4ccccc4)n3)n2)c(OC)cc1N1CCOCC1 with its measured DSC onset.
Result block: 214 °C

Query block: Annotate the molecule C=CC(=O)Nc1cc(Nc2nccc(-n3cc(CN(C)C)c(-c4ccccc4)n3)n2)c(OC)cc1N1CCOCC1.CCS(=O)(=O)O with its measured DSC onset.
Result block: 223 °C

Query block: Annotate the molecule C=CC(=O)Nc1cc(Nc2nccc(-n3cc(CN(C)C)c(-c4ccccc4)n3)n2)c(OC)cc1N1CCOCC1.Cl with its measured DSC onset.
Result block: 267 °C

Query block: Annotate the molecule C=CC(=O)Nc1cc(Nc2nccc(-n3cc(CN(C)C)c(-c4ccccc4)n3)n2)c(OC)cc1N1CCOCC1.O=C(O)CC(O)(CC(=O)O)C(=O)O with its measured DSC onset.
Result block: 182 °C

###

Settings: accelerated conditions; HPLC; 3 mos
Metric name: Purity (%)
Output spec: scalar in %, unitless text.

Query block: Annotate the compound C=CC(=O)Nc1cc(Nc2nccc(-n3cc(CN(C)C)c(-c4ccccc4)n3)n2)c(OC)cc1N1CCOCC1.O=C(O)CC(O)(CC(=O)O)C(=O)O [C. Ex. 3] with its measured Purity.
Result block: 98.9

Query block: Annotate the compound C=CC(=O)Nc1cc(Nc2nccc(-n3cc(CN(C)C)c(-c4ccccc4)n3)n2)c(OC)cc1N1CCOCC1.Cl [C. Ex. 2] with its measured Purity.
Result block: 98.9

Query block: Annotate the compound C=CC(=O)Nc1cc(Nc2nccc(-n3cc(CN(C)C)c(-c4ccccc4)n3)n2)c(OC)cc1N1CCOCC1.CCS(=O)(=O)O [C. Ex. 4] with its measured Purity.
Result block: 99.0

Query block: Annotate the compound C=CC(=O)Nc1cc(Nc2nccc(-n3cc(CN(C)C)c(-c4ccccc4)n3)n2)c(OC)cc1N1CCOCC1 [Ex. 1] with its measured Purity.
Result block: 99.3

###

Test: Pharmacokinetic comparison test in beagle dogs
Assay type: in vivo
Settings: male, dog, plasma, 5 mg/kg, oral 5 mg/2 mL/kg in 0.5% methylcellulose, read-out: Area under the plasma concentration curve (AUClast)
Metric name: AUC(0-t) (ng·h/mL)
Output spec: scalar in ng·h/mL, unitless text.

Query block: Annotate the compound C=CC(=O)Nc1cc(Nc2nccc(-n3cc(CN(C)C)c(-c4ccccc4)n3)n2)c(OC)cc1N1CCOCC1 with its measured AUC(0-t).
Result block: 812

###

Experiment: Stability test under stress conditions (PXRD, DSC, appearance, HPLC)
Details: stress conditions; HPLC; 2 weeks
Metric name: Purity

Query block: Annotate the compound C=CC(=O)Nc1cc(Nc2nccc(-n3cc(CN(C)C)c(-c4ccccc4)n3)n2)c(OC)cc1N1CCOCC1 with its measured Purity.
Result block: 99.3%

Query block: Annotate the compound C=CC(=O)Nc1cc(Nc2nccc(-n3cc(CN(C)C)c(-c4ccccc4)n3)n2)c(OC)cc1N1CCOCC1.O=C(O)CC(O)(CC(=O)O)C(=O)O with its measured Purity.
Result block: 98.8%

Query block: Annotate the compound C=CC(=O)Nc1cc(Nc2nccc(-n3cc(CN(C)C)c(-c4ccccc4)n3)n2)c(OC)cc1N1CCOCC1.CCS(=O)(=O)O with its measured Purity.
Result block: 99.0%

Query block: Annotate the compound C=CC(=O)Nc1cc(Nc2nccc(-n3cc(CN(C)C)c(-c4ccccc4)n3)n2)c(OC)cc1N1CCOCC1.Cl with its measured Purity.
Result block: 99.1%

###

Conditions: accelerated conditions; 3 mos
Metric name: Water content
Returns: string containing the number followed by the unit.

Query block: Annotate the molecule C=CC(=O)Nc1cc(Nc2nccc(-n3cc(CN(C)C)c(-c4ccccc4)n3)n2)c(OC)cc1N1CCOCC1.Cl with its measured Water content.
Result block: 1.47%

Query block: Annotate the molecule C=CC(=O)Nc1cc(Nc2nccc(-n3cc(CN(C)C)c(-c4ccccc4)n3)n2)c(OC)cc1N1CCOCC1.CCS(=O)(=O)O with its measured Water content.
Result block: 2.98%

Query block: Annotate the molecule C=CC(=O)Nc1cc(Nc2nccc(-n3cc(CN(C)C)c(-c4ccccc4)n3)n2)c(OC)cc1N1CCOCC1 with its measured Water content.
Result block: 3.19%

Query block: Annotate the molecule C=CC(=O)Nc1cc(Nc2nccc(-n3cc(CN(C)C)c(-c4ccccc4)n3)n2)c(OC)cc1N1CCOCC1.O=C(O)CC(O)(CC(=O)O)C(=O)O with its measured Water content.
Result block: 3.05%

###

Conditions: accelerated conditions; HPLC; 1 mo
Metric name: Content (%)
Output spec: scalar in %, unitless text.

Query block: Annotate the compound C=CC(=O)Nc1cc(Nc2nccc(-n3cc(CN(C)C)c(-c4ccccc4)n3)n2)c(OC)cc1N1CCOCC1.CCS(=O)(=O)O with its measured Content.
Result block: 96.1

Query block: Annotate the compound C=CC(=O)Nc1cc(Nc2nccc(-n3cc(CN(C)C)c(-c4ccccc4)n3)n2)c(OC)cc1N1CCOCC1.Cl with its measured Content.
Result block: 97.0

Query block: Annotate the compound C=CC(=O)Nc1cc(Nc2nccc(-n3cc(CN(C)C)c(-c4ccccc4)n3)n2)c(OC)cc1N1CCOCC1.O=C(O)CC(O)(CC(=O)O)C(=O)O with its measured Content.
Result block: 100.5

Query block: Annotate the compound C=CC(=O)Nc1cc(Nc2nccc(-n3cc(CN(C)C)c(-c4ccccc4)n3)n2)c(OC)cc1N1CCOCC1 with its measured Content.
Result block: 98.9
